Substrate: PET
methodNotes: Proxy for plastic degradation [HPLC-UV] (mmol)
conditions: pH 8; 30 °C
measuredAttribute: Proxy for plastic degradation

Consider the reported Proxy for plastic degradation for these proteins:
>>> result("unnamed (protein) WGAQNHFYETVLVDTDENPRETHLVGQIDGVFTDENYGEYEVTIYYPAINSGVSQPPDKSGAPYPAIIFAHGWLTSKELYTWIGNYCAAQGYVTLLFSVPDPTSLEAFRQSVTGITKSIDYLLVQNQGGLLSGLINTSRIGVMGHSMGAMAVLIATTEDSRIKAAVSLAPGYFGSTTKKYVEACKSIRVPIQFQAGSLDKICPPSAVETYYNAVRIPPKEIIVINGADHIQFSDAPATLWANITLEEQHETSRKYFIAWFNYYLRDDFNYYAYLFGSEARKDMENGILSSLEYVERFDC")
0
>>> result("unnamed (protein) VGTISFDLVDKERLELYGDKIGEERKFKAQMWYPSDDVTEGERAPWIEDGVKVSRMIPKDIGLPGFLIDYSSLIKSNSYKGVPISEKEEKYPIVIISHGWTGYRNIHTDIGELLASHGYIAISIDHTYGSLATVFDNGEVIEVDYGALPNRNETEDFLDYANALVTTYAYDSRFVLDYLEELDDSELIDGRLDLDRIGTLGHSTGGGGVVKIAIEDDRIKAIFGFDPWVEPIEDELLKIGLDVPSLFIRSEQWEEGYNNGYLTTLINHSVIKPMTYQMNGVNHLDFTMLYMYRPILQAFGFAGELDSQVSSKIQLEYVLKFFETYLKDNETNLNDIEKIYDSVIPVNY")
0
>>> result("unnamed (protein) APAGPYNVGYVIYDFPFVSPDGALQSLTTAVWYPTDAEPTPYTYGDGRATGLVSLDGPVSPAGRPFPLVVFSHGYGGGGTANLFLTKHLASWGFVVASPDYPDPDQMVRIRGGGTNTPILQYLRNALRLARTGLDFPFDDYAFRPAGLRTVIDQMLAQNADDTSALHGAIDPDRIAVAGHSLGTFTALSVAGLDPQWTDPRIRAVLALSGGVFMWPTQDFAQVSVPIMFMYGEREAGQRERIGLADVAALTRAAYDVCQPPKFMLEVKGGTHFTFGQRVYEERRAGGDASLPERQVAVINSYAAAFLRLYLRNDTSAAATLQQTDPMLTLYRHDM")
0

Next:
State, in one line, measured Proxy for plastic degradation of unnamed (protein) CNDGSGGLEKTTELEPEDIYPLGDYYDPGKTGPYEVGVKTILLADNSRRTMLGHTKRILLTEVWYPILAPGDKINTVGDMIGQLPEWTPQILESFYGENWEDLLNIQTSAWRDAKTFLPDHPFPVIFFSHGLTALRFQNYTLCEHLASHGFLVIAPDHFDNNVFSNIPGHFTWFNPISTVASEFQRPRDIAFLVKHLQTRQSQTATFFGSYADPGRLGITGHSYGGMTSYAAGEQVAEIDAIAPLNPVILVPTTKFFTKPLLLLVGENDNLASSMFNSCEVAKRNYQTHKGNKAFLFLKNSGHYSATDACMLLPPGFINDDITGCGGAMLNPDIANEIVAAYQVAFFSITLKQDARYQDYLNKNNYPDNLDYEVSWK
0
